Recorded pIC50 by entry
Tested on: DU145
assayProcedure: Cancer cell growth inhibition
Format: cell-based
conditionSet: Homo sapiens, DU-145; DU145 (prostate), 72 hr treatment
pIC50: −log10 of the molar value.

Please review the following examples before continuing.
[
  {
    "molecule": "CC(C)(O)Cc1cc(-c2csc(-c3ccc(NS(C)(=O)=O)cc3Cl)c2)ccn1 [Compound I-9004]",
    "testedOn": "DU145",
    "pIC50": "< 5.00"
  },
  {
    "molecule": "CC(C)(CO)c1cc(-c2csc(-c3ccc(NS(C)(=O)=O)cc3Cl)c2)ccn1 [Compound I-8909]",
    "testedOn": "DU145",
    "pIC50": "< 5.00"
  }
]

Here is another molecule to look at.
Asked: Which pIC50 reading was recorded for the molecule CS(=O)(=O)Nc1ccc(-c2cc(-c3ccnc4c3OCCO4)cs2)c(Cl)c1 [Compound I-9017] ?
Given back: > 5.00
